- target_desc: TDP-43 (Homo sapiens, UniProt Q13148 1-414)
- Sequence (Q13148 whole entry): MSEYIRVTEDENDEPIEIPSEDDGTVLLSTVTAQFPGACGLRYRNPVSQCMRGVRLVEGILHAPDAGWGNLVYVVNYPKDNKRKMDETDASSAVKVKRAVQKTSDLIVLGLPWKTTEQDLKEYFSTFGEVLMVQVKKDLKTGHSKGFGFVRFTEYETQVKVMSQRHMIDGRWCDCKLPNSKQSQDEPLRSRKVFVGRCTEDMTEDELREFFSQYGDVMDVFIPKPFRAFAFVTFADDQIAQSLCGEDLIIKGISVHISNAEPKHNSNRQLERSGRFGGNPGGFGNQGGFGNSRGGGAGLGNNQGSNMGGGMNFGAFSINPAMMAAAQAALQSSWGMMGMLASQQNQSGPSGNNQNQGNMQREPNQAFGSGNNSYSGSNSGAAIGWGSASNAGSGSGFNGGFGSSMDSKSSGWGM
- measurement_notes: RNA Bind-n-Seq with designed 260-mer pool; 25 mM Tris-HCl, 150 mM KCl, 3 mM MgCl2, BSA (printed 500 mg/mL), 20 units/mL SUPERase IN; pH not stated; 500 nM RNA pool, 1 h, 4 C; TDP-43 5, 50, 500 nM; high values mean tight binding
- condition_summary: protein: recombinant; tags: SBP (GST cleaved off with PreScission; pGEX-GST-SBP)
Over roughly 9,900 sequences, “r (bound/input frequency ratio)” has its median near 0.7; the highest 2% begin near 6.5. This excerpt belongs to a sample that is enriched for the highest values.
parameter_measured: binding signal

## Task Endpoint output: binding signal of ENSMUSG00000061578.1468|Ksr2 (ssRNA) RNA: GGGAGUUCUACAGUCCGACGAUCGCUUCGAUAUCCGCAUGCUAGAUGAAUGGAUGGGUGAAUGGAUGGAUAGGUAUGUGAAUAAAUGGAUGGAUGGAUGGAUUGAUUUGUGAAUGAAUGGAUGAAUGGAUGGGUAGGUGGGUGGAUGCAUAGGCAAGUAGAUGAAUGAAUAUGUGGGUAGAAGGGUGAGUGGGUGGAUGAAUGGAUGGAUAGGUUGGUAGGUUAAUGUAUUCGUGGAUGGGUGAAUGGAUGGAUGGAUAGAUAGAUGGGAAGGUGGAUGGACAGAUGGAUGGAUGGAUAGAUACUCUUGCGGUCGCACUAGUGUGGAAUUCUCGGGUGUCAAGG . Value?
## Result 14.4 R (bound/input frequency ratio)

## Task Please give the result for ENSMUSG00000061578.1473|Ksr2 (ssRNA) RNA: GGGAGUUCUACAGUCCGACGAUCGCUUCGAUAUCCGCAUGCUAUAUGUGAAUAAAUGGAUGGAUGGAUGGAUUGAUUUGUGAAUGAAUGGAUGAAUGGAUGGGUAGGUGGGUGGAUGCAUAGGCAAGUAGAUGAAUGAAUAUGUGGGUAGAAGGGUGAGUGGGUGGAUGAAUGGAUGGAUAGGUUGGUAGGUUAAUGUAUUCGUGGAUGGGUGAAUGGAUGGAUGGAUAGAUAGAUGGGAAGGUGGAUGGACAGAUGGAUGGAUGGAUAGAUAGAUGGACAGGUGGUUGGUGGAUAAAUGAGUCUCUUGCGGUCGCACUAGUGUGGAAUUCUCGGGUGUCAAGG too.
## Result 9.68 R (bound/input frequency ratio)

## Task Please give the result for ENSMUSG00000061578.1477|Ksr2 (ssRNA) RNA: GGGAGUUCUACAGUCCGACGAUCGCUUCGAUAUCCGCAUGCUAUGGAUUGAUUUGUGAAUGAAUGGAUGAAUGGAUGGGUAGGUGGGUGGAUGCAUAGGCAAGUAGAUGAAUGAAUAUGUGGGUAGAAGGGUGAGUGGGUGGAUGAAUGGAUGGAUAGGUUGGUAGGUUAAUGUAUUCGUGGAUGGGUGAAUGGAUGGAUGGAUAGAUAGAUGGGAAGGUGGAUGGACAGAUGGAUGGAUGGAUAGAUAGAUGGACAGGUGGUUGGUGGAUAAAUGAGUGAAUGAUUAUGUUGAUAGAUAUGUCUCUUGCGGUCGCACUAGUGUGGAAUUCUCGGGUGUCAAGG too.
## Result 5.58 R (bound/input frequency ratio)

## Task Please give the result for ENSMUSG00000061578.1475|Ksr2 (ssRNA) RNA: GGGAGUUCUACAGUCCGACGAUCGCUUCGAUAUCCGCAUGCUAUGGAUGGAUGGAUGGAUUGAUUUGUGAAUGAAUGGAUGAAUGGAUGGGUAGGUGGGUGGAUGCAUAGGCAAGUAGAUGAAUGAAUAUGUGGGUAGAAGGGUGAGUGGGUGGAUGAAUGGAUGGAUAGGUUGGUAGGUUAAUGUAUUCGUGGAUGGGUGAAUGGAUGGAUGGAUAGAUAGAUGGGAAGGUGGAUGGACAGAUGGAUGGAUGGAUAGAUAGAUGGACAGGUGGUUGGUGGAUAAAUGAGUGAAUGAUUAUGUCUCUUGCGGUCGCACUAGUGUGGAAUUCUCGGGUGUCAAGG too.
## Result 8.8 R (bound/input frequency ratio)
